The reported numbers originate from patent US4368200A.

test system: Candida albicans; assay: Experiment A: activity against vaginal candidosis in rats; assay type: in vivo, Female Wistar rats; details: po, 336 h, orally once a day for two days starting from the day of infection, active at the 14th day after infection, read-out: Vaginal candidosis in rats: lowest effective dose in mg/kg orally

compound | minimal effective dose
Clc1ccc([C@@]2(Cn3ccnc3)OC[C@H](COc3ccc(N4CCN(c5ccc(-n6ccnc6)cc5)CC4)cc3)O2)c(Cl)c1 (relative stereo) | 1.25 mg/kg
CCn1nc(C)n(-c2ccc(N3CCN(c4ccc(OC[C@H]5CO[C@](Cn6ccnc6)(c6ccc(Cl)cc6Cl)O5)cc4)CC3)cc2)c1=O (relative stereo) | 1.25 mg/kg
Clc1ccc([C@@]2(Cn3cncn3)OC[C@H](COc3ccc(N4CCN(c5ccc(-n6cncn6)cc5)CC4)cc3)O2)c(Cl)c1 (relative stereo) | 0.63 mg/kg
Clc1ccc([C@@]2(Cn3ccnc3)OC[C@H](COc3ccc(N4CCN(c5ccc(-n6cccn6)cc5)CC4)cc3)O2)c(Cl)c1 (relative stereo) | 2.5 mg/kg
Clc1ccc([C@@]2(Cn3cncn3)OC[C@H](COc3ccc(N4CCN(c5ccc(-n6cccn6)cc5)CC4)cc3)O2)c(Cl)c1 (relative stereo) | 2.5 mg/kg
Clc1ccc([C@@]2(Cn3ccnc3)OC[C@H](COc3ccc(N4CCN(c5ccc(-n6cncn6)cc5)CC4)cc3)O2)c(Cl)c1 (relative stereo) | 0.63 mg/kg

----------
test system: Candida albicans; assay: Experiment A: activity against vaginal candidosis in rats; assay type: in vivo, Female Wistar rats; conditions: po, 336 h, orally once a day for two days starting from the day of infection, active at the 14th day after infection, read-out: Vaginal candidosis in rats: lowest effective dose in mg/kg orally
Listed here are compounds together with their documented minimal effective dose.

compound | study target | uom | operator | minimal effective dose
CSc1ncn(-c2ccc(N3CCN(c4ccc(OC[C@H]5CO[C@](Cn6ccnc6)(c6ccc(Cl)cc6Cl)O5)cc4)CC3)cc2)n1 (relative stereo) | Candida albicans | mg/kg | = | 2.5
CSc1ncn(-c2ccc(N3CCN(c4ccc(OC[C@H]5CO[C@](Cn6cncn6)(c6ccc(Cl)cc6Cl)O5)cc4)CC3)cc2)n1 (relative stereo) | Candida albicans | mg/kg | = | 1.25
Cc1ncnn1-c1ccc(N2CCN(c3ccc(OC[C@H]4CO[C@](Cn5cncn5)(c5ccc(Cl)cc5Cl)O4)cc3)CC2)cc1 (relative stereo) | Candida albicans | mg/kg | = | 0.63
CCCn1nc(C)n(-c2ccc(N3CCN(c4ccc(OC[C@H]5CO[C@](Cn6cncn6)(c6ccc(Cl)cc6Cl)O5)cc4)CC3)cc2)c1=O (relative stereo) | Candida albicans | mg/kg | = | 0.5
CSc1nc(C)n(-c2ccc(N3CCN(c4ccc(OC[C@H]5CO[C@](Cn6ccnc6)(c6ccc(Cl)cc6Cl)O5)cc4)CC3)cc2)n1 (relative stereo) | Candida albicans | mg/kg | = | 2.5
Cc1nn(C)c(=O)n1-c1ccc(N2CCN(c3ccc(OC[C@H]4CO[C@](Cn5cncn5)(c5ccc(Cl)cc5Cl)O4)cc3)CC2)cc1 (relative stereo) | Candida albicans | mg/kg | ≤ | 0.63

----------
system: Candida albicans; assay: Experiment A: activity against vaginal candidosis in rats; format: in vivo, Female Wistar rats; conditions: po, 336 h, orally once a day for two days starting from the day of infection, active at the 14th day after infection, read-out: Vaginal candidosis in rats: lowest effective dose in mg/kg orally
observed property: minimal effective dose (mg/kg)

compound | study target | operator | recorded value
Clc1ccc([C@@]2(Cn3cncn3)OC[C@H](COc3ccc(N4CCN(c5ccc(-n6ccnc6)cc5)CC4)cc3)O2)c(Cl)c1 (relative stereo) | Candida albicans | = | 1.25
CSc1nc(C)n(-c2ccc(N3CCN(c4ccc(OC[C@H]5CO[C@](Cn6cncn6)(c6ccc(Cl)cc6Cl)O5)cc4)CC3)cc2)n1 (relative stereo) | Candida albicans | ≤ | 0.63
Cc1nn(C)c(=O)n1-c1ccc(N2CCN(c3ccc(OC[C@H]4CO[C@](Cn5ccnc5)(c5ccc(Cl)cc5Cl)O4)cc3)CC2)cc1 (relative stereo) | Candida albicans | = | 0.63
CCn1ncn(-c2ccc(N3CCN(c4ccc(OC[C@H]5CO[C@](Cn6cncn6)(c6ccc(Cl)cc6Cl)O5)cc4)CC3)cc2)c1=O (relative stereo) | Candida albicans | ≥ | 0.16
CSc1nnc(C)n1-c1ccc(N2CCN(c3ccc(OC[C@H]4CO[C@](Cn5cncn5)(c5ccc(Cl)cc5Cl)O4)cc3)CC2)cc1 (relative stereo) | Candida albicans | = | 2.5
CCn1ncn(-c2ccc(N3CCN(c4ccc(OC[C@H]5CO[C@](Cn6ccnc6)(c6ccc(Cl)cc6Cl)O5)cc4)CC3)cc2)c1=O (relative stereo) | Candida albicans | = | 1.25
